Assay: Half life in po dosed Sprague-Dawley rat
Assay type: ADME, organism-based
Conditions: in vivo
Reported Metric: half-life (min)
Write it as a number; the unit min goes unstated.

Below: 2 compounds and their reported half-life.
O=C(O)CCCCCCN1C(=O)CC[C@@H]1CCC(O)Cc1ccccc1 (stereo partly drawn) :: 27
O=C(O)c1ccc(CCCN2C(=O)CC[C@@H]2CC[C@@H](O)Cc2cccc(C(F)(F)F)c2)s1 :: 52.2

Moving on to another compound below.
Lookup result for O=C(O)CCCCCCN1C(=O)CC[C@@H]1CC[C@@H](O)Cc1cccc(C(F)(F)F)c1 ; measured half-life: 25.2

###

A collection of compounds and their measured pIC50
Biological target: Prostaglandin E2 receptor EP4 subtype (Rattus norvegicus, UniProt P43114)
Sequence (P43114 whole entry): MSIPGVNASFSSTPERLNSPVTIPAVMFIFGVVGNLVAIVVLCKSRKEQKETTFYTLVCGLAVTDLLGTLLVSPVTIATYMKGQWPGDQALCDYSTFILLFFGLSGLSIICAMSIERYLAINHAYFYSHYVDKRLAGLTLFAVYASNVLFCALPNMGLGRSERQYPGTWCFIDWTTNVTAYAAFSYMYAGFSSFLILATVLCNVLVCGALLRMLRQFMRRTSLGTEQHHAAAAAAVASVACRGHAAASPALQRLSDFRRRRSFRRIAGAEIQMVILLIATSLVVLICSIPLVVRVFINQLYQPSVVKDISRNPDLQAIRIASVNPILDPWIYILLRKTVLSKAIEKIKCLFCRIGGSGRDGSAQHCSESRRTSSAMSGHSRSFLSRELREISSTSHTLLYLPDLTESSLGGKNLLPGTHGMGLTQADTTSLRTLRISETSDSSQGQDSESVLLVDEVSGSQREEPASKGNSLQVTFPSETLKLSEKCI
Assay: Binding affinity to rat EP4 receptor expressed in HEK293 cells
The quantity pIC50 is defined as the negative base-10 logarithm of the molar concentration.

O=C(O)c1ccc(CCCN2C(=O)CC[C@@H]2CC[C@@H](O)Cc2cccc(C(F)(F)F)c2)cc1 :: 7.15
O=C(O)c1ccc(CCCN2C(=O)CCC2CCC(O)Cc2ccc(F)cc2)cc1 (stereo unspecified) :: 5.56
O=C(O)c1ccc(CCCN2C(=O)CC[C@@H]2CCC(O)Cc2ccccc2-c2ccccc2)s1 (stereo partly specified) :: 5.80
O=C(O)c1ccc(CCCN2C(=O)CC[C@@H]2CCC(O)Cc2ccc(Cl)cc2)s1 (stereo partly specified) :: 7.10

Moving on to another compound below.
Lookup result for O=C(O)c1ccc(CCCN2C(=O)CC[C@@H]2CCC(O)Cc2cccc(-c3ccccc3)c2)s1 (stereo partly specified) ; measured pIC50: 7.30

###

A collection of compounds and their measured half-life
Experiment: Half life in sc dosed Sprague-Dawley rat
Format: ADME, organism-based
Conditions: in vivo
Write it as a number; the unit min goes unstated.

O=C(O)c1ccc(CCCN2C(=O)CC[C@@H]2CC[C@@H](O)Cc2cccc(C(F)(F)F)c2)s1 :: 18

Lookup result for O=C(O)CCCCCCN1C(=O)CC[C@@H]1CC[C@@H](O)Cc1cccc(C(F)(F)F)c1 ; measured half-life: 25.8

Lookup result for O=C(O)CCCCCCN1C(=O)CC[C@@H]1CCC(O)Cc1ccccc1 (stereo partly drawn) ; measured half-life: 21

###

Biological target: Prostaglandin E2 receptor EP4 subtype (Rattus norvegicus, UniProt P43114)
Assay: Activity at rat EP4 transfected in HEK293 cells by cAMP accumulation
Format: functional, cell-based
Reported Metric: EC50 (nM)
Write it as a number; the unit nM goes unstated.

CCc1ccc(CC(O)CC[C@H]2CCC(=O)N2CCCc2ccc(C(=O)O)s2)cc1 (stereo not given in full) :: 275
O=C(O)c1ccc(CCCN2C(=O)CC[C@@H]2CCC(O)Cc2ccc(Cl)cc2)s1 (stereo not given in full) :: 40
O=C(O)c1ccc(CCCN2C(=O)CC[C@@H]2CCC(O)Cc2ccc3ccccc3c2)s1 (stereo not given in full) :: 500
O=C(O)CCCCCCN1C(=O)CC[C@@H]1CC[C@@H](O)Cc1cccc(OC(F)(F)F)c1 :: 50

Moving on to another compound below.
Lookup result for O=C(O)c1ccc(CCCN2C(=O)CC[C@@H]2CC[C@@H](O)Cc2cccc(Cl)c2)s1 ; measured EC50: 0.6

###

Assay: Half life in iv dosed Sprague-Dawley rat
Assay type: ADME, organism-based
Conditions: in vivo
A collection of molecules and their measured half-life
Write it as a number; the unit min goes unstated.

Below: 2 molecules and their reported half-life.
O=C(O)CCCCCCN1C(=O)CC[C@@H]1CC[C@@H](O)Cc1cccc(C(F)(F)F)c1 :: 12
O=C(O)c1ccc(CCCN2C(=O)CC[C@@H]2CC[C@@H](O)Cc2cccc(C(F)(F)F)c2)s1 :: 12

Lookup result for O=C(O)CCCCCCN1C(=O)CC[C@@H]1CCC(O)Cc1ccccc1 (stereo partly drawn) ; measured half-life: 6

###

Target: Prostaglandin E2 receptor EP2 subtype (Rattus norvegicus)
Assay: Binding affinity to rat EP2 receptor expressed in HEK293 cells
pIC50: −log10 of the molar value.
Reported Metric: pIC50

Below: 2 compounds and their reported pIC50.
O=C(O)CCCCCCN1C(=O)CC[C@@H]1CC[C@@H](O)Cc1cccc(OC(F)(F)F)c1 :: < 5.49
O=C(O)c1ccc(CCCN2C(=O)CCC2CCC(O)Cc2ccccc2)cc1 (stereo not drawn) :: < 5.49

Lookup result for O=C(O)c1ccc(CCCN2C(=O)CCC2CCC(O)Cc2ccc(F)cc2)cc1 (stereo not drawn) ; measured pIC50: < 5.49

###

Molecular target: UniProt P43114
Experiment: Binding affinity to rat EP4 receptor expressed in HEK293 cells
Reported Metric: IC50 (nM)
Write it as a number; the unit nM goes unstated.

Below: 2 compounds and their reported IC50.
O=C(O)CCCCCCN1C(=O)CC[C@@H]1CC[C@@H](O)CCc1ccccc1 :: 2710
O=C(O)c1ccc(CCCN2C(=O)CCC2CCC(O)Cc2cccc(Oc3ccccc3)c2)cc1 (stereo not drawn) :: 220

Moving on to another compound below.
Lookup result for O=C(O)c1ccc(CCCN2C(=O)CC[C@@H]2CCC(O)Cc2ccccc2)s1 (stereo partly drawn) ; measured IC50: 21

###

A collection of compounds and their measured Activity
Target: Prostaglandin E2 receptor EP4 subtype (Rattus norvegicus)
Assay: Activity at rat EP4 transfected in HEK293 cells by cAMP accumulation compared to PGE2
Format: functional, cell-based
# answer = value followed by unit

O=C(O)c1ccc(CCCN2C(=O)CC[C@@H]2CC[C@@H](O)Cc2cccc(C(F)(F)F)c2)cc1 :: 105%
O=C(O)c1ccc(CCCN2C(=O)CC[C@@H]2CCC(O)Cc2ccccc2)s1 (stereo partly drawn) :: 88%
O=C(O)CCCCCCN1C(=O)CC[C@@H]1CC[C@@H](O)Cc1cccc(C(F)(F)F)c1 :: 75%

Moving on to another compound below.
Lookup result for COCCc1cccc(C[C@H](O)CC[C@H]2CCC(=O)N2CCCCCCC(=O)O)c1 ; measured Activity: 82%

###

A collection of molecules and their measured pIC50
Target: Prostaglandin E2 receptor EP2 subtype (Rattus norvegicus, UniProt Q62928)
Sequence (Q62928 whole entry): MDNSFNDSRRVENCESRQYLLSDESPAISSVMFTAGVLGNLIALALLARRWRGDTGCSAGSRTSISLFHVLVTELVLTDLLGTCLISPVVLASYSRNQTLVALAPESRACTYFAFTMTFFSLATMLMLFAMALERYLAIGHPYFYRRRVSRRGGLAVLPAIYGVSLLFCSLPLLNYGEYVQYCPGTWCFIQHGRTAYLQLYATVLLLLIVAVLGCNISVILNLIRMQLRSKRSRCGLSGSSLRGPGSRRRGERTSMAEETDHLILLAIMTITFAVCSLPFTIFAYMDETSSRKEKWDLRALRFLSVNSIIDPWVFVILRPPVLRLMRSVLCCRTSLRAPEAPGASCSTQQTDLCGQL
Experiment: Binding affinity to rat EP2 receptor expressed in HEK293 cells
The quantity pIC50 is defined as the negative base-10 logarithm of the molar concentration.

Below: 2 molecules and their reported pIC50.
O=C(O)c1ccc(CCCN2C(=O)CC[C@@H]2CCC(O)Cc2ccccc2-c2ccccc2)s1 (some centres not stated) :: 6.90
O=C(O)c1ccc(CCCN2C(=O)CC[C@@H]2CC[C@@H](O)Cc2cccc(Cl)c2)s1 :: 6.73

Lookup result for CCc1ccc(CC(O)CC[C@H]2CCC(=O)N2CCCc2ccc(C(=O)O)s2)cc1 (some centres not stated) ; measured pIC50: 5.92

Lookup result for O=C(O)c1ccc(CCCN2C(=O)CC[C@@H]2CCC(O)Cc2ccccc2)s1 (some centres not stated) ; measured pIC50: 6.16

Lookup result for O=C(O)c1ccc(CCCN2C(=O)CC[C@@H]2CCC(O)Cc2ccc(Cl)cc2)s1 (some centres not stated) ; measured pIC50: 7.07

###

Target: Prostaglandin E2 receptor EP4 subtype (Rattus norvegicus, UniProt P43114)
Test: Activity at rat EP4 transfected in HEK293 cells by cAMP accumulation
Format: functional, cell-based
A collection of compounds and their measured pEC50
The quantity pEC50 is defined as the negative base-10 logarithm of the molar concentration.

Below: 5 compounds and their reported pEC50.
O=C(O)CCCCCCN1C(=O)CC[C@@H]1CC[C@@H](O)Cc1cccc(C(F)(F)F)c1 :: 7.89
O=C(O)CCCCCCN1C(=O)CC[C@@H]1CC[C@@H](O)Cc1cccc(-c2ccccc2)c1 :: 6.71
O=C(O)c1ccc(CCCN2C(=O)CC[C@@H]2CCC(O)Cc2cccc(-c3ccccc3)c2)s1 (some centres undefined) :: 6.69
COCCc1cccc(C[C@H](O)CC[C@H]2CCC(=O)N2CCCCCCC(=O)O)c1 :: 7.04
O=C(O)CCCCCCN1C(=O)CC[C@@H]1CC[C@@H](O)Cc1cccc(O)c1 :: 6.77

Lookup result for O=C(O)c1ccc(CCCN2C(=O)CC[C@@H]2CCC(O)Cc2cccc(F)c2)s1 (some centres undefined) ; measured pEC50: 8.62

Lookup result for O=C(O)c1ccc(CCCN2C(=O)CC[C@@H]2CC[C@@H](O)Cc2ccc(F)cc2)s1 ; measured pEC50: 7.66

Lookup result for O=C(O)c1ccc(CCCN2C(=O)CC[C@@H]2CCC(O)Cc2ccccc2)s1 (some centres undefined) ; measured pEC50: 8.77

Lookup result for O=C(O)CCCCCCN1C(=O)CCC1CCC(O)Cc1cccc(Cl)c1 (centres undefined) ; measured pEC50: 8.06

###

Target: Prostaglandin E2 receptor EP4 subtype (Rattus norvegicus) (UniProt P43114)
Sequence (P43114 whole entry): as the sequence (P43114 whole entry) above
Assay: Activity at rat EP4 transfected in HEK293 cells by cAMP accumulation compared to PGE2
Assay type: functional, cell-based
Reported Metric: Activity (%)
Write it as a number; the unit % goes unstated.

O=C(O)c1ccc(CCCN2C(=O)CC[C@@H]2CCC(O)Cc2ccc3ccccc3c2)s1 (some centres undefined) :: 73

Lookup result for O=C(O)CCCCCCN1C(=O)CC[C@@H]1CCC(O)Cc1ccccc1 (some centres undefined) ; measured Activity: 114
